Settings: 24 h
outcome measure: R, ratio of saturation solubility with and without β-cyclodextrin derivative
Answer field: number only, no words.

query: Please give the measured R, ratio of saturation solubility with and without β-cyclodextrin derivative for this compound: CC(=O)N1CCN(c2ccc(OCC3COC(Cn4ccnc4)(c4ccc(Cl)cc4Cl)O3)cc2)CC1 (stereo not shown)
result: 85

query: # R, ratio of saturation solubility with and without β-cyclodextrin derivative lookup, item `COC(=O)Nc1nc2cc(C(=O)c3ccc(F)cc3)ccc2[nH]1`
result: 30

query: Record request: R, ratio of saturation solubility with and without β-cyclodextrin derivative value, item `Fc1ccc(C(c2ccc(F)cc2)N2CCN(C/C=C/c3ccccc3)CC2)cc1`
result: 18

query: For the compound shown here, COc1cc(N)c(Cl)cc1C(=O)NC1CCN(CCCOc2ccc(F)cc2)CC1OC (stereo not shown) [Cisapride] , give the reported R, ratio of saturation solubility with and without β-cyclodextrin derivative.
result: 3
